- Measured Target: ERK2 R133K (Mus musculus, UniProt P63085, R133K)
- Construct: His6; made in house; host or cells: E. coli BL21(DE3), co-expressed with GST-MEK1ΔN3
- Sequence (P63085 whole entry R133K): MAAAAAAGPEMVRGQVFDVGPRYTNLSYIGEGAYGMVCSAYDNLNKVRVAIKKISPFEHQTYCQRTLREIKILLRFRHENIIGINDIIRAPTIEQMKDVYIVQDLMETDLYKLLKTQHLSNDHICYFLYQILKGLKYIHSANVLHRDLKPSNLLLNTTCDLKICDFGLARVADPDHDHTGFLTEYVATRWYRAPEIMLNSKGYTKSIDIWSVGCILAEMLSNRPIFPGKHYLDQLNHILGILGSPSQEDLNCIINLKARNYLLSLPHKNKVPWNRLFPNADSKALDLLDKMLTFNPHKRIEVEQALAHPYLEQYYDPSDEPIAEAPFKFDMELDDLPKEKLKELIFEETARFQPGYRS
- Procedure Summary: Competitive peptide kinase assay (D-peptide inhibition), ERK2 R133K
- Type: biochemical
- Measurement Conditions: Table S1, 5 μM reporter peptide, 10 nM ERK2, 10 μM ATP, three independent experiments
Peptide text beside a SMILES is read from it.
Assay Readout: pIC50
Notebook: values listed as pIC50 are -log10 of the concentration (mol/L).

// fetch pIC50 given entry CC(C)C[C@H](NC(=O)[C@H](C)NC(=O)[C@@H](N)Cc1ccc(O)cc1)C(=O)N[C@@H](CCC(N)=O)C(=O)N[C@@H](CCC(N)=O)C(=O)N[C@@H](CCCNC(=N)N)C(=O)N[C@@H](CCCNC(=N)N)C(=O)N[C@@H](CC(C)C)C(=O)N[C@@H](CCC(N)=O)C(=O)N[C@@H](Cc1c[nH]cn1)C(=O)N[C@@H](CCCNC(=N)N)C(=O)N[C@@H](CC(C)C)C(=O)N[C@@H](CCCNC(=N)N)C(=O)N[C@@H](CC(C)C)C(=O)N[C@@H](CCCNC(=N)N)C(=O)N[C@@H](C)C(=O)O [AEBP1] (H-YALQQRRLQHRLRLRA-OH)
3.96

// fetch pIC50 given entry CC[C@H](C)[C@H](NC(=O)[C@@H](NC(=O)[C@H](CC(C)C)NC(=O)[C@H](C)NC(=O)[C@@H]1CCCN1C(=O)[C@H](CC(C)C)NC(=O)[C@@H](NC(=O)[C@@H]1CCCN1C(=O)[C@H](CCCCN)NC(=O)[C@H](CCCNC(=N)N)NC(=O)[C@H](CCCNC(=N)N)NC(=O)[C@H](C)NC(=O)[C@H](C)NC(=O)[C@@H](N)Cc1ccc(O)cc1)C(C)C)[C@@H](C)O)C(=O)N[C@@H](CC(N)=O)C(=O)N1CCC[C@H]1C(=O)O [MAP2K2] (H-YAARRKPVLPALTINP-OH)
4.54

Others:
// fetch pIC50 given entry CC[C@H](C)[C@H](NC(=O)[C@H](C)NC(=O)[C@@H](N)Cc1ccc(O)cc1)C(=O)N[C@@H](CCCCN)C(=O)NCC(=O)N[C@@H](CCCCN)C(=O)N[C@@H](CCCNC(=N)N)C(=O)N[C@@H](CCCNC(=N)N)C(=O)N[C@@H](CCCNC(=N)N)C(=O)N[C@@H](CCCCN)C(=O)N[C@@H](CCCCN)C(=O)N[C@@H](CC(C)C)C(=O)N[C@H](C(=O)N[C@@H](CC(C)C)C(=O)N[C@@H](C)C(=O)N[C@@H](CCCCN)C(=O)O)[C@@H](C)CC [ZBED6] (H-YAIKGKRRRKKLILAK-OH)
5.21

// fetch pIC50 given entry CC[C@H](C)[C@H](NC(=O)[C@@H](NC(=O)[C@H](CCC(=O)O)NC(=O)[C@H](CCSC)NC(=O)[C@H](CCC(N)=O)NC(=O)[C@H](CCCNC(=N)N)NC(=O)[C@H](CCCNC(=N)N)NC(=O)[C@H](CC(N)=O)NC(=O)[C@H](CCCNC(=N)N)NC(=O)[C@H](CC(C)C)NC(=O)[C@H](C)NC(=O)[C@@H](N)Cc1ccc(O)cc1)C(C)C)C(=O)N[C@@H](CO)C(=O)N[C@@H](CC(C)C)C(=O)N[C@@H](CCCNC(=N)N)C(=O)N[C@@H](CC(C)C)C(=O)O [DISC1] (H-YALRNRRQMEVISLRL-OH)
4.13

###

Reported IC50 values for a set of molecules
- Measured Target: ERK2 D319N (Mus musculus, UniProt P63085, D319N)
- Construct: His6
- Sequence (P63085 whole entry D319N): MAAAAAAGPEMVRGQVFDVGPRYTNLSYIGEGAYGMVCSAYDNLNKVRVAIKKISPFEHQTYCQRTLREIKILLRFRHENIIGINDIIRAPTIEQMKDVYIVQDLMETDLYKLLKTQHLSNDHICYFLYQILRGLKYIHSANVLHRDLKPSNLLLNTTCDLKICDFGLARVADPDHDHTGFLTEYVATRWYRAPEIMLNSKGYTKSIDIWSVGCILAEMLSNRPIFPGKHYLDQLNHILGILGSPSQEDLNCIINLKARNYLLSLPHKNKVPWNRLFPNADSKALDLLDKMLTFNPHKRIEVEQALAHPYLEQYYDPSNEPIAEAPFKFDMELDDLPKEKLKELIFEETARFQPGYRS
- Procedure Summary: Competitive peptide kinase assay (D-peptide inhibition), ERK2 D319N
- Measurement Conditions: Table S1, 5 μM reporter peptide, 10 nM ERK2, 10 μM ATP, three independent experiments
Peptide text beside a SMILES is read from it.
# number only, unit µM dropped from output

// fetch IC50 given entry CC(C)C[C@H](NC(=O)[C@H](CC(C)C)NC(=O)[C@H](CC(C)C)NC(=O)[C@H](CCCNC(=N)N)NC(=O)[C@H](CCCCN)NC(=O)[C@@H]1CCCN1C(=O)[C@H](CCCCN)NC(=O)[C@@H]1CCCN1C(=O)CNC(=O)[C@H](CCCNC(=N)N)NC(=O)[C@H](CCCCN)NC(=O)[C@H](CCCNC(=N)N)NC(=O)[C@H](C)NC(=O)[C@@H](N)Cc1ccc(O)cc1)C(=O)N[C@@H](CCC(N)=O)C(=O)N[C@@H](CCCNC(=N)N)C(=O)O [CBX7] (H-YARKRGPKPKRLLLQR-OH)
9.8

Others:
// fetch IC50 given entry CC[C@H](C)[C@H](NC(=O)[C@H](C)NC(=O)[C@@H](N)Cc1ccc(O)cc1)C(=O)N[C@@H](CCCCN)C(=O)NCC(=O)N[C@@H](CCCCN)C(=O)N[C@@H](CCCNC(=N)N)C(=O)N[C@@H](CCCNC(=N)N)C(=O)N[C@@H](CCCNC(=N)N)C(=O)N[C@@H](CCCCN)C(=O)N[C@@H](CCCCN)C(=O)N[C@@H](CC(C)C)C(=O)N[C@H](C(=O)N[C@@H](CC(C)C)C(=O)N[C@@H](C)C(=O)N[C@@H](CCCCN)C(=O)O)[C@@H](C)CC [ZBED6] (H-YAIKGKRRRKKLILAK-OH)
23

###

- Measured Target: ERK2 E322K (Mus musculus, UniProt P63085, E320K)
- Construct: His6; made in house; host or cells: E. coli BL21(DE3), co-expressed with GST-MEK1ΔN3
- Sequence (P63085 whole entry E320K): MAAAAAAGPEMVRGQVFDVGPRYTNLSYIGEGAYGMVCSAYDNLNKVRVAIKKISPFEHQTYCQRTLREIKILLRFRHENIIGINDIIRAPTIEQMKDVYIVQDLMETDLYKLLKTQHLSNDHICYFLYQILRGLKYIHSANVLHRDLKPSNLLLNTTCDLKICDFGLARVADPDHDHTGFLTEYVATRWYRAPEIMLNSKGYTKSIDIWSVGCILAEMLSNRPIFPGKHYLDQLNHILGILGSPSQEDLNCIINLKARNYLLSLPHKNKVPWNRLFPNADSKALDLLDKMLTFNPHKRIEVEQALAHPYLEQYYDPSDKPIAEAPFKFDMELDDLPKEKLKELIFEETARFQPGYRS
- Procedure Summary: Competitive peptide kinase assay (D-peptide inhibition), ERK2 E322K
- Type: biochemical
- Measurement Conditions: Table S1, 5 μM reporter peptide, 10 nM ERK2, 10 μM ATP, three independent experiments
Peptide text beside a SMILES is read from it.
Assay Readout: pIC50
Notebook: values listed as pIC50 are -log10 of the concentration (mol/L).

// fetch pIC50 given entry CC(C)C[C@H](NC(=O)[C@H](CC(C)C)NC(=O)[C@H](CC(C)C)NC(=O)[C@H](CCCNC(=N)N)NC(=O)[C@H](CCCCN)NC(=O)[C@@H]1CCCN1C(=O)[C@H](CCCCN)NC(=O)[C@@H]1CCCN1C(=O)CNC(=O)[C@H](CCCNC(=N)N)NC(=O)[C@H](CCCCN)NC(=O)[C@H](CCCNC(=N)N)NC(=O)[C@H](C)NC(=O)[C@@H](N)Cc1ccc(O)cc1)C(=O)N[C@@H](CCC(N)=O)C(=O)N[C@@H](CCCNC(=N)N)C(=O)O [CBX7] (H-YARKRGPKPKRLLLQR-OH)
4.85

Others:
// fetch pIC50 given entry CC[C@H](C)[C@H](NC(=O)[C@H](CC(C)C)NC(=O)[C@@H]1CCCN1C(=O)[C@H](CCC(=O)O)NC(=O)[C@@H]1CCCN1C(=O)[C@H](CCCNC(=N)N)NC(=O)[C@@H]1CCCN1C(=O)[C@H](CCCNC(=N)N)NC(=O)[C@H](CCC(N)=O)NC(=O)[C@H](CCCCN)NC(=O)[C@@H]1CCCN1C(=O)[C@H](C)NC(=O)[C@@H](N)Cc1ccc(O)cc1)C(=O)N[C@H](C(=O)N1CCC[C@H]1C(=O)N[C@H](C(=O)O)[C@@H](C)O)[C@@H](C)CC [ELMSAN1] (H-YAPKQRPRPEPLIIPT-OH)
4.40

###

- Measured Target: ERK2 E322K (Mus musculus, UniProt P63085, E320K)
- Construct: His6; made in house; host or cells: E. coli BL21(DE3), co-expressed with GST-MEK1ΔN3
- Procedure Summary: Competitive peptide kinase assay (D-peptide inhibition), ERK2 E322K
- Assay type: biochemical
- Measurement Conditions: Table S1, 5 μM reporter peptide, 10 nM ERK2, 10 μM ATP, three independent experiments
Peptide text beside a SMILES is read from it.
Assay Readout: pIC50
Notebook: values listed as pIC50 are -log10 of the concentration (mol/L).

A selection of reference data follows.
// fetch pIC50 given entry CC(C)C[C@H](NC(=O)[C@@H](NC(=O)[C@H](CC(C)C)NC(=O)[C@H](CO)NC(=O)[C@@H](NC(=O)[C@H](CC(N)=O)NC(=O)[C@H](CO)NC(=O)CNC(=O)[C@H](CCCNC(=N)N)NC(=O)[C@H](CCCNC(=N)N)NC(=O)[C@H](CCC(=O)O)NC(=O)[C@H](CCC(N)=O)NC(=O)[C@H](CC(C)C)NC(=O)CNC(=O)[C@H](C)NC(=O)[C@@H](N)Cc1ccc(O)cc1)C(C)C)[C@@H](C)O)C(=O)O [PTPN5] (H-YAGLQERRGSNVSLTL-OH)
3.22

// fetch pIC50 given entry CC(C)C[C@H](NC(=O)[C@H](CC(=O)O)NC(=O)[C@H](CCCNC(=N)N)NC(=O)[C@@H]1CCCN1C(=O)[C@H](CCCCN)NC(=O)[C@H](CCCNC(=N)N)NC(=O)CNC(=O)[C@H](CCCCN)NC(=O)[C@H](C)NC(=O)[C@@H](N)Cc1ccc(O)cc1)C(=O)N[C@@H](CCC(=O)O)C(=O)N[C@@H](CC(C)C)C(=O)N1CCC[C@H]1C(=O)N[C@@H](CC(C)C)C(=O)N[C@@H](CO)C(=O)N1CCC[C@H]1C(=O)O [ELK1] (H-YAKGRKPRDLELPLSP-OH)
4.37

// next item, pIC50 requested
// fetch pIC50 given entry CC(C)C[C@H](NC(=O)CNC(=O)[C@H](CCCCN)NC(=O)[C@H](Cc1ccccc1)NC(=O)[C@H](CC(N)=O)NC(=O)[C@H](CCCCN)NC(=O)[C@H](Cc1c[nH]c2ccccc12)NC(=O)[C@H](CCCCN)NC(=O)[C@@H]1CCCN1C(=O)[C@H](CO)NC(=O)[C@H](C)NC(=O)[C@@H](N)Cc1ccc(O)cc1)C(=O)N[C@@H](CCCCN)C(=O)N[C@@H](CC(C)C)C(=O)N[C@@H](CC(C)C)C(=O)N[C@@H](CS)C(=O)O [MLXIPL] (H-YASPKWKNFKGLKLLC-OH)
4.55

Hey, just so you know, these numbers are from paper PMC11982978.
